Target: Nucleoprotein (Influenza A virus (strain A/Wilson-Smith/1933 H1N1), UniProt P15682, S377G)
Assay: Binding affinity to Influenza A virus (A/WSN/1933(H1N1)) nucleoprotein S377G mutant transfected in 293T cells assessed as inhibition of RNA dependent RNA polymerase activity
Measurement type: pIC50
Reminder that pIC50 means the negative base-10 logarithm of the concentration expressed in mol/L.

compound="Cn1c(=O)c2c(-c3ccccc3)n3c(c2n(C)c1=O)C(c1ccccc1F)OCC3(C)C (configuration not stated)" measurement_type=pIC50 measured_value=5.77

API: the following record is the query input.
Prompt: Bench note: what pIC50 did `Cc1onc(-c2ccccc2Cl)c1C(=O)N1CCN(c2ccc([N+](=O)[O-])cc2)CC1` show?
Response: 6.52
